Quick list: TGI per entry.
Tested on: MDA-N
assay_notes: NCI tumour cell line growth inhibition, 48 h
Where a SMILES comes first, the peptide text is derived from it. The star is where a group is joined. Cbz = O=C(OCc1ccccc1)*; Boc = CC(C)(C)OC(=O)*; OSu = O=C1CCC(=O)N1O*; Bn = c1ccc(C*)cc1

A selection of reference data follows.
[in] Record request: TGI value, item CC(C)(C)OC(=O)NC(Cc1ccc(OCc2ccccc2)cc1)C(=O)NC(CCCCNC(=O)OCc1ccccc1)C(=O)NC(CCCCNC(=O)OCc1ccccc1)C(=O)ON1C(=O)CCC1=O (configuration not stated) (Boc-Tyr(Bn)-Lys(Cbz)-Lys(Cbz)-OSu; configuration not given here)
[out] 45.4 µM

[in] Record request: TGI value, item NC(N)=NCCCC(NC(=O)c1c2ccccc2nc2ccccc12)C(=O)O (configuration not stated)
[out] > 100 µM

[in] Record request: TGI value, item COc1ccc2c(c1)CC[C@@H]1C2CC[C@]2(C)C(=C=CP(=O)(O)O)CCC12 (some centres not stated)
[out] > 100 µM

[in] Record request: TGI value, item COc1ccc(/C(CC2OC(=O)c3ccccc32)=N\NC(N)=O)cc1 (configuration not stated)
[out] > 100 µM

[in] Record request: TGI value, item Cc1ncc(CSC(=N)N)n1Cc1ccccc1
[out] > 100 µM

Others:
[in] Record request: TGI value, item Cc1ccc(NCCN(C)C)c2c(=O)c3cc(O)ccc3sc12
[out] 4.58 µM

[in] Record request: TGI value, item CC(C)=Nn1cnc2c1NC(C)(C)N=C2C(N)=O
[out] > 10 µM

###

System: NCI-H460 lung
# output must be one of YES (active), NO (inactive)

[in] Assay result, entry COc1cc(/C=C\c2cc(OC)c(OC)c(OC)c2)cc(NS(=O)(=O)c2ccc(Cl)cc2)c1OC — outcome?
[out] YES

Continue with the compound presented below.
[in] Assay result, entry NC(N)=N/N=C/c1c(-c2ccncc2)nc2sc(Cl)cn12 — outcome?
[out] NO

###

Test system: SK-OV-3 ovarian
assay_notes: NCI tumour cell line growth inhibition, 48 h
Quick list: TGI per entry.
Provide the reading as a plain figure in µM.

A selection of reference data follows.
[in] Record request: TGI value, item CN(C)c1ccc(N=C2C=CC(=C(C#N)C#N)c3ccccc32)cc1
[out] 6.53

[in] Record request: TGI value, item CCCCCCCCCCCCC1N=C(N)N2CCCC2=C1C(=O)OC (stereo not given)
[out] 23.8

[in] Record request: TGI value, item CC1=C2[C@@H](CC1)[C@]1(C)O[C@@](C3CC3)(C[C@H]1OC(=O)CO)[C@H]2OC(=O)/C=C/c1ccccc1
[out] 29.6

Others:
[in] Record request: TGI value, item CNCc1cccc2c1OCCOCCOCCC(C)S(=O)(=O)c1ccc(cc1)-c1cnc(N)c(n1)C(=O)N2 (stereo not given)
[out] 2.87

[in] Record request: TGI value, item CCOc1ccc(Nc2nc(-c3c(C)nc4ncccn34)cs2)cc1
[out] 5.48

[in] Record request: TGI value, item CNCc1ccc(-c2[nH]c3cc(F)cc4c3c2CCNC4=O)cc1
[out] 56

###

Test system: HCC-2998 colon
assay_notes: NCI tumour cell line growth inhibition, 48 h
endpoint_name: TGI

[in] Record request: TGI value, item Cc1nc2c(Br)cc(Br)cc2c(=O)n1-c1ccccc1NC1OCC(O)C(O)C1O (centres undefined)
[out] > 100 µM

[in] Record request: TGI value, item COC(=O)C(=O)C(C(=O)C(=O)Nc1ccc(C)c(C)c1)c1nc2ccc([N+](=O)[O-])cc2[nH]c1=O (centres undefined)
[out] > 100 µM

[in] Record request: TGI value, item C=CCN1C(=O)CC(=O)N(NC2=NNC3(C(=O)N2)c2ccccc2-c2ccccc23)C1=S
[out] > 100 µM

Please turn your attention to the following entry.
[in] Record request: TGI value, item C#CC#CC#CC#CC#CC#CC#CC#CC[C@@H]1OC[C@@H](COC(=O)O[C@@H](C(=O)O[C@H]2C[C@@]3(O)[C@@H](OC(=O)c4ccccc4)[C@@H]4[C@]5(OC(C)=O)CO[C@@H]5C[C@H](O)[C@@]4(C)C(=O)[C@H](OC(C)=O)C(=C2C)C3(C)C)[C@@H](NC(=O)c2ccccc2)c2ccccc2)O1
[out] > 17.5 µM

###

Test system: UACC-257 melanoma
assay_notes: NCI tumour cell line growth inhibition, 48 h
Quick list: TGI per entry.

A selection of reference data follows.
[in] Record request: TGI value, item COc1cc(N(CCC#N)CCC#N)ccc1/C(N=Nc1ccc(C(=O)O)cc1)=N/NC(=O)c1cc(Br)ccc1O
[out] > 150 µg/mL

[in] Record request: TGI value, item CC(C)=CC(=O)c1c(C(=O)O)nc2ccccc2[n+]1[O-]
[out] > 100 µM

[in] Record request: TGI value, item NC(Cc1ccccc1CP(=O)(O)O)C(=O)O (configuration not stated)
[out] > 100 µM

[in] Record request: TGI value, item CC(=O)O[C@H]1C(=O)[C@@]2(C)[C@H]([C@H](OC(=O)c3ccco3)[C@]3(O)C[C@H](OC(=O)[C@H](O)[C@@H](NC(=O)c4ccccc4)c4ccccc4)C(C)=C1C3(C)C)[C@]1(OC(C)=O)CO[C@@H]1C[C@@H]2O
[out] > 25 µM

[in] Record request: TGI value, item CC[C@]1(Cc2ccc(OC)c(OC)c2)C=[N+]([O-])O[C@H](OC2CCCC2(c2ccccc2)c2ccccc2)[C@@H]1OC(=O)C(C)(C)C (some centres not stated)
[out] 18.7 µM

[in] Record request: TGI value, item CCOC(=O)c1cn(CC)c2ccc3c(c2c1=O)S(=O)(=O)C=C3
[out] > 100 µM

Please turn your attention to the following entry.
[in] Record request: TGI value, item CCN1CCN(c2nc(NNC(=O)c3ccccc3)nc(N3CCN(C(c4ccccc4)c4ccccc4)CC3)n2)CC1
[out] 4.25 µM

###

Quick list: TGI per entry.
Test system: CAKI-1 renal
assay_notes: NCI tumour cell line growth inhibition, 48 h
Where a SMILES comes first, the peptide text is derived from it. The star is where a group is joined. Cbz = O=C(OCc1ccccc1)*; Boc = CC(C)(C)OC(=O)*; OSu = O=C1CCC(=O)N1O*; Bn = c1ccc(C*)cc1

A selection of reference data follows.
[in] Record request: TGI value, item Cn1c(NC(=O)NC23CC4CC(CC(C4)C2)C3)nc2ccccc21
[out] > 100 µM

[in] Record request: TGI value, item COC1OC(C(=O)O)C2OC(C)(C)OC12 (stereo not given)
[out] > 100 µM

[in] Record request: TGI value, item COC(=O)[C@]1(C)CCC[C@]2(C)[C@@H]1CCC13C[C@@H](C=CO1)[C@@H](C)CC32O (stereo not given in full)
[out] > 100 µM

Others:
[in] Record request: TGI value, item Cc1cc(C)n2c(nc3ccccc32)c1C#N
[out] > 100 µM

[in] Record request: TGI value, item CN(C)c1ccc(O[Si](Oc2ccc(N(C)C)cc2)(Oc2ccc(N(C)C)cc2)Oc2ccc(N(C)C)cc2)cc1
[out] > 100 µM

[in] Record request: TGI value, item COc1cc(OC)cc(-c2ccc(-c3ccc(C(=N)N)cn3)s2)c1
[out] 3.2 µM

[in] Record request: TGI value, item COc1ccc(C23OCC(Cc4cc(OC)c(OC)cc42)C3CO)cc1OC (stereo not given)
[out] > 100 µM

[in] Record request: TGI value, item CC(C)(C)OC(=O)NC(Cc1ccc(OCc2ccccc2)cc1)C(=O)NC(CCCCNC(=O)OCc1ccccc1)C(=O)NC(CCCCNC(=O)OCc1ccccc1)C(=O)ON1C(=O)CCC1=O (stereo not given) (Boc-Tyr(Bn)-Lys(Cbz)-Lys(Cbz)-OSu; configuration not given here)
[out] > 100 µM

[in] Record request: TGI value, item CC1=CCN(c2ccccn2)OC1c1ccccc1 (stereo not given)
[out] > 100 µM

[in] Record request: TGI value, item C/C(=N\NC(=S)N1CCOCC1)c1nc2ncccc2[nH]1
[out] > 100 µM

[in] Record request: TGI value, item COC(=O)c1sc(=NC(=S)N2CCCCC2)sc1C(=O)OC
[out] > 100 µM

[in] Record request: TGI value, item Nc1ncnc2c1nc(Cl)n2C1OC(CO)C(O)C1O (stereo not given)
[out] > 100 µM

[in] Record request: TGI value, item COC(=O)CC1CC2(C(=O)OC)c3[nH]c4ccccc4c3CCN2C1=O (stereo not given)
[out] > 100 µM

###

Quick list: GI50 per entry.
Test system: HL-60(TB) leukemia
assay_notes: NCI tumour cell line growth inhibition, 48 h

[in] Record request: GI50 value, item COc1cc(N(CCC#N)CCC#N)ccc1/C(N=Nc1ccc(C(=O)O)cc1)=N/NC(=O)c1cc(Br)ccc1O
[out] 55.4 µg/mL

[in] Record request: GI50 value, item O=c1nc2[nH]c3c(-c4n[nH]c(=O)[nH]c4=O)cccc3c2n[nH]1
[out] > 100 µM

[in] Record request: GI50 value, item COc1c(O)c2c3c(c1OC)-c1ccccc1CC3N(S(=O)(=O)c1ccc(C)cc1)CC2 (stereo not drawn)
[out] 1.18 µM
